Reported IC50 is given for each of the following compounds.
SYSTEM UNDER TEST: recombinant human DPP-1 (Cathepsin C) (Homo sapiens, UniProt P53634)
Sequence (P53634 25-463): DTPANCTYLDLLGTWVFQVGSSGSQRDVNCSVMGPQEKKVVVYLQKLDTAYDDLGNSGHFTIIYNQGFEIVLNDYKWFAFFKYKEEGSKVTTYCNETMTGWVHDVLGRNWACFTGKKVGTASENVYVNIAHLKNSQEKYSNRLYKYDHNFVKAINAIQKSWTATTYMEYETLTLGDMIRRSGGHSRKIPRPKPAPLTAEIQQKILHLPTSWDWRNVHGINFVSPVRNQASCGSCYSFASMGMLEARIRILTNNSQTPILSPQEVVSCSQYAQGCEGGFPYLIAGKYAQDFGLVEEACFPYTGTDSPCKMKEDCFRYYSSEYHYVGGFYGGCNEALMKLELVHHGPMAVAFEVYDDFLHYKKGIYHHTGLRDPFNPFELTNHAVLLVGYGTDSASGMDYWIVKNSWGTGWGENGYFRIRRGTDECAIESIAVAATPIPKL
PROTOCOL: DPP-1 Inhibition Assay (In Vitro), fluorogenic substrate GR-AMC
COND: 0.15 nM DPP-1, 10 uM GR-AMC, pH 7.0, room temperature; average value where tested multiple times

SMILES DATA: CC[C@H](N)C(=O)N1CCC(Cc2ccccc2)(C(=O)OCC2CCCCC2)CC1
IC50: ~5000 nM
--
SMILES DATA: CC[C@H](N)C(=O)N1CCC(Cc2cccc(OC)c2)(C(=O)NC2CCCCC2)CC1
IC50: 9500 nM
--
SMILES DATA: CC[C@H](N)C(=O)N1CCC(Cc2ccc(F)cc2F)(C(=O)OCC2CCCCC2)CC1
IC50: 6100 nM
--
SMILES DATA: N[C@@H](Cc1cccs1)C(=O)N1CCC(Cc2ccc(I)cc2)(C(=O)NC2CCCCC2)CC1
IC50: 37 nM
--
SMILES DATA: N[C@@H](Cc1cccs1)C(=O)N1CCC(C(=O)N[C@H]2CC[C@H](O)CC2)(c2ccccc2)CC1
IC50: 110 nM
--
SMILES DATA: N[C@@H](Cc1cccs1)C(=O)N1CCC(Cc2ccc(C(=O)NC3CCCCC3)cc2)(C(=O)NC2CCCCC2)CC1
IC50: 49 nM
--
SMILES DATA: N[C@@H](Cc1c[nH]cn1)C(=O)N1CCC(Cc2ccc(C(F)(F)F)cc2)(C(=O)OCC2CCCCC2)CC1
IC50: 3100 nM
--
SMILES DATA: C[C@@H](O)[C@H](N)C(=O)N1CCC(C(=O)NCC2CCCCC2)(c2ccccc2)CC1
IC50: 2600 nM
--
SMILES DATA: N[C@@H](Cc1cccs1)C(=O)N1CCC(Cc2cccc(-c3ccccc3)c2)(C(=O)OCC2CCCCC2)CC1
IC50: 880 nM
--
SMILES DATA: N[C@@H](Cc1cccs1)C(=O)N1CCC(C(=O)NC2=NCCS2)(c2ccccc2)CC1
IC50: 220 nM
--
SMILES DATA: N[C@@H](Cc1cccs1)C(=O)N1CCC(C(=O)NC2CCOCC2)(c2ccccc2)CC1
IC50: 310 nM
--
SMILES DATA: N[C@@H](Cc1cccs1)C(=O)N1CCC(Cc2cccnc2)(C(=O)OCC2CCCCC2)CC1
IC50: 99 nM
--
SMILES DATA: Cc1ccc(C2(C(=O)NCC3CCCCC3)CCN(C(=O)[C@@H](N)Cc3cccs3)CC2)cc1
IC50: 17 nM
--
SMILES DATA: Nc1ccc(CC2(C(=O)NC3CCCCC3)CCN(C(=O)[C@@H](N)Cc3cccs3)CC2)cc1
IC50: 63 nM
--
SMILES DATA: N[C@@H](Cc1cccs1)C(=O)N1CCC(Cc2cccc(-c3ccc(O)nc3)c2)(C(=O)NC2CCCCC2)CC1
IC50: 45 nM

* * *

SYSTEM UNDER TEST: recombinant human DPP-1 (Cathepsin C) (Homo sapiens)
PROTOCOL: DPP-1 Inhibition Assay (In Vitro), fluorogenic substrate GR-AMC
COND: 0.15 nM DPP-1, 10 uM GR-AMC, pH 7.0, room temperature; average value where tested multiple times

SMILES DATA: N[C@@H](Cc1cccs1)C(=O)N1CCC(Cc2ccc(-c3ccncc3)cc2)(C(=O)NC2CCCCC2)CC1
IC50, nM: 29

SMILES DATA: COc1cccc(CC2(C(=O)NC3CCCCC3)CCN(C(=O)[C@@H](N)Cc3cccs3)CC2)c1
IC50, nM: 56

SMILES DATA: CC[C@H](N)C(=O)N1CCC(Cc2cccnc2)(C(=O)NC2CCCCC2)CC1
IC50, nM: 9100

SMILES DATA: N#CC[C@H](N)C(=O)N1CCC(Cc2ccc(-c3ccccc3)cc2)(C(=O)NC2CCCCC2)CC1
IC50, nM: 600

* * *

SYSTEM UNDER TEST: recombinant human DPP-1 (Cathepsin C) (Homo sapiens, UniProt P53634)
PROTOCOL: DPP-1 Inhibition Assay (In Vitro), fluorogenic substrate GR-AMC
COND: 0.15 nM DPP-1, 10 uM GR-AMC, pH 7.0, room temperature; average value where tested multiple times
Reported IC50 is given for each of the following compounds.

COMPOUND: N[C@@H](Cc1cccs1)C(=O)N1CCC(Cc2ccc([N+](=O)[O-])cc2)(C(=O)NC2CCCCC2)CC1
IC50 [nM]: 24
--
COMPOUND: N[C@@H](Cc1cccs1)C(=O)N1CCC(Cc2cccc(I)c2)(C(=O)NC2CCCCC2)CC1
IC50 [nM]: 84
--
COMPOUND: CCC[C@H](N)C(=O)N1CCC(Cc2cccnc2)(C(=O)NCC2CCCCC2)CC1
IC50 [nM]: 6500
--
COMPOUND: N[C@@H](Cc1cccs1)C(=O)N1CCC(C(=O)N[C@H]2CC[C@H](C(=O)O)CC2)(c2ccccc2)CC1
IC50 [nM]: 200
--
COMPOUND: N[C@@H](Cc1cccs1)C(=O)N1CCC(Cc2ccc(-c3ccc(C(=O)O)cc3)cc2)(C(=O)NC2CCCCC2)CC1
IC50 [nM]: 100
--
COMPOUND: N#Cc1ccc(-c2ccc(CC3(C(=O)NC4CCCCC4)CCN(C(=O)[C@@H](N)Cc4cccs4)CC3)cc2)cc1 [Compound 99]
IC50 [nM]: 46
--
COMPOUND: N[C@@H](Cc1cccs1)C(=O)N1CCC(Cc2ccc(-c3ccccc3)cc2)(C(=O)NC2CCCCC2)CC1
IC50 [nM]: 35

* * *

Reported IC50 is given for each of the following compounds.
SYSTEM UNDER TEST: recombinant human DPP-1 (Cathepsin C) (Homo sapiens, UniProt P53634)
PROTOCOL: DPP-1 Inhibition Assay (In Vitro), fluorogenic substrate GR-AMC
COND: 0.15 nM DPP-1, 10 uM GR-AMC, pH 7.0, room temperature; average value where tested multiple times
Method: Test compounds were assessed for DPP-1 (Cathepsin C) inhibitory activity using a fluorogenic substrate, GR-AMC (Glycine-Arginine-amino-4-methylcoumarin, Bachem, I-1215). The amount of amino-methylcoumarin released is proportional to the DPP-1 activity, and the reaction is monitored kinetically with a Molecular Devices plate reader using black 96-well plates. All compounds were tested under room temperature conditions. […]
MEASUREMENT LABEL: IC50 (nM)

SMILES DATA: N[C@@H](Cc1cccs1)C(=O)N1CCC(Cc2ccc(-c3ccc(O)nc3)cc2)(C(=O)NC2CCCCC2)CC1
MEASUREMENT LABEL: IC50
NUMERIC RESULT: 24
//
SMILES DATA: CN(CC1CCCCC1)C(=O)C1(c2ccccc2)CCN(C(=O)[C@@H](N)Cc2cccs2)CC1
MEASUREMENT LABEL: IC50
NUMERIC RESULT: 16
//
SMILES DATA: N[C@@H](Cc1cccs1)C(=O)N1CCC(Cc2ccncc2)(C(=O)OCC2CCCCC2)CC1
MEASUREMENT LABEL: IC50
NUMERIC RESULT: 93
//
SMILES DATA: CC[C@H](N)C(=O)N1CCC(Cc2cccnc2)(C(=O)OCC2CCCCC2)CC1
MEASUREMENT LABEL: IC50
NUMERIC RESULT: 8200
//
SMILES DATA: N[C@@H](Cc1cccs1)C(=O)N1CCC(C(=O)NC[C@H]2CC[C@H](C(=O)O)CC2)(c2ccccc2)CC1
MEASUREMENT LABEL: IC50
NUMERIC RESULT: 200
//
SMILES DATA: Cc1ccc(C2(C(=O)NCC3CCOCC3)CCN(C(=O)[C@@H](N)Cc3cccs3)CC2)cc1
MEASUREMENT LABEL: IC50
NUMERIC RESULT: 41
//
SMILES DATA: N[C@@H](Cc1cccs1)C(=O)N1CCC(C(=O)N[C@H]2CC[C@H](O)CC2)(c2cc(C(F)(F)F)cc(C(F)(F)F)c2)CC1
MEASUREMENT LABEL: IC50
NUMERIC RESULT: 230
//
SMILES DATA: N[C@@H](Cc1cccs1)C(=O)N1CCC(Cc2ccc(C(=O)N3CCCC3)cc2)(C(=O)NC2CCCCC2)CC1
MEASUREMENT LABEL: IC50
NUMERIC RESULT: 73
//
SMILES DATA: N[C@@H](Cc1c[nH]cn1)C(=O)N1CCC(C(=O)NC2CCCCC2)(c2ccccc2)CC1
MEASUREMENT LABEL: IC50
NUMERIC RESULT: 2800
//
SMILES DATA: N[C@@H](Cc1cccs1)C(=O)N1CCC(Cc2ccccc2)(C(=O)NC2CCCCC2)CC1
MEASUREMENT LABEL: IC50
NUMERIC RESULT: 40
//
SMILES DATA: N[C@@H](Cc1cccs1)C(=O)N1CCC(Cc2ccc(-c3cccc(C(=O)O)c3)cc2)(C(=O)NC2CCCCC2)CC1
MEASUREMENT LABEL: IC50
NUMERIC RESULT: 100
